FYI, the data here is from patent US20230391845A1.

- TARGET OF ASSAY: human glucagon-like peptide 1 receptor (human, UniProt P43220 24-463)
- PROTOCOL DESCRIPTION: cell-based or functional assay
Where no end group is shown, it is not given here. [ ]: non-standard residue; d: D form. Aib = CC(C)(N)C(=O)O
READOUT KIND: hGLP-1R CRE Luc EC50 (pM)

>>> readout_value("H[Aib]HGTFTSDYSYYLEKQYA[Aib]EFVQWLLEGGPSSGAPPPS-NH2 (not fully specified (residue 16); printed as H-Aib-HGTFTSDYSYYLE-K[(2S)-2-amino-6-[[(2S)-2-amino-6-[[(4S)-4-carboxy-4-(19-carboxynonadecanoylamino)butanoyl]amino]hexanoyl]amino]hexanoyl]-QYA-Aib-EFVQWLLEGGPSSGAPPPS-NH2) [Compound No. 29]")
5.8
>>> readout_value("H[Aib]HGTFTSDYSIYLEKRAA[Aib]EFVQWLLEGGPSSGAPPPS-NH2 (not fully specified (residue 16); printed as H-Aib-HGTFTSDYSIYLE-K[(2S)-2-amino-6-[[(2S)-2-amino-6-[[(4S)-4-carboxy-4-(19-carboxynonadecanoylamino)butanoyl]amino]hexanoyl]amino]hexanoyl]-RAA-Aib-EFVQWLLEGGPSSGAPPPS-NH2) [Compound No. 37]")
1.8
>>> readout_value("Y[Aib]QGTFTSDYSIYLEKQAA[Aib]EFVNWLLAGGPSSGAPPPS-NH2 (not fully specified (residue 16); printed as Y-Aib-QGTFTSDYSIYLE-K[2-[2-[2-[[2-[2-[2-[[(4S)-4-carboxy-4-[[4-[(19-carboxynonadecanoylamino)methyl]cyclohexanecarbonyl]amino]butanoyl]amino]ethoxy]ethoxy]acetyl]amino]ethoxy]ethoxy]acetyl]-QAA-Aib-EFVNWLLAGGPSSGAPPPS-NH2) [Compound No. 12]")
2.4
>>> readout_value("Y[Aib]QGTFTSDYSIYLEKQAA[Aib]EFVQWLLEGGPSSGAPPPS-NH2 (not fully specified (residue 16)) [Compound No. 17]")
2.8
>>> readout_value("H[Aib]HGTFTSDYSYYLEKQAA[Aib]EFVQWLLEGGPSSGAPPPS-NH2 (not fully specified (residue 16); printed as H-Aib-HGTFTSDYSYYLE-K[2-[2-[2-[[2-[2-[2-[[(4S)-4-carboxy-4-(19-carboxynonadecanoylamino)butanoyl]amino]ethoxy]ethoxy]acetyl]amino]ethoxy]ethoxy]acetyl]-QAA-Aib-EFVQWLLEGGPSSGAPPPS-NH2) [Compound No. 40]")
3.7
>>> readout_value("H[Aib]HGTFTSDYSIYLEKQAA[Aib]EFVQWLLEGGPSSGAPPPS-NH2 (not fully specified (residue 16)) [Compound No. 21]")
3
>>> readout_value("Y[Aib]QGTFTSDYSIYLDKQAA[Aib]KFVQWLLEGGPSSGAPPPS-NH2 (not fully specified (residue 21); printed as Y-Aib-QGTFTSDYSIYLDKQAA-Aib-K[2-[2-[2-[[2-[2-[2-11(4S)-4-carboxy-4-(19-carboxynonadecanoylamino)butanoyl]amino]ethoxy]ethoxy]acetyl]amino]ethoxy]ethoxy]acetyl]-FVQWLLEGGPSSGAPPPS-NH2) [Compound No. 7]")
8.2
>>> readout_value("Y[Aib]QGTFTSDYSIYLDKQAA[Aib]KFVNWLLAGGPSSGAPPPS-NH2 (not fully specified (residue 21); printed as Y-Aib-QGTFTSDYSIYLDKQAA-Aib-K[2-[2-[2-[[2-[2-[2-[[(4S)-4-carboxy-4-(17-carboxyheptadecanoylamino)butanoyl]amino]ethoxy]ethoxy]acetyl]amino]ethoxy]ethoxy]acetyl]-FVNWLLAGGPSSGAPPPS-NH2) [Compound No. 3]")
5.4
>>> readout_value("H[Aib]HGTFTSDYSIYLEKQAAQEFVQWLLEGGPSSGAPPPS-NH2 (not fully specified (residue 16); printed as H-Aib-HGTFTSDYSIYLE-K[(2S)-2-amino-6-[[(2S)-2-amino-6-[[(4S)-4-carboxy-4-[[4-[(19-carboxynonadecanoylamino)methyl]cyclohexanecarbonyl]amino]butanoyl]amino]hexanoyl]amino]hexanoyl]-QAAQEFVQWLLEGGPSSGAPPPS-NH2) [Compound No. 23]")
2
>>> readout_value("H[Aib]HGTFTSDYSILLEKQAAEEFVQWLLEGGPSSGAPPPS-OH (not fully specified (residue 16); printed as H-Aib-HGTFTSDYSILLE-K[(2S)-2-amino-6-[[(2S)-2-amino-6-[[(4S)-4-carboxy-4-(19-carboxynonadecanoylamino)butanoyl]amino]hexanoyl]amino]hexanoyl]-QAAEEFVQWLLEGGPSSGAPPPS-OH) [Compound No. 50]")
1
